From: ChEMBL document CHEMBL1128432

Assay: Plasma half life in beagles after iv administration of 5 mg/kg.
Type: ADME, organism-based, Canis lupus familiaris
Design: dose 5 mg/kg, route intravenous
Settings: beagle, dog
Measurement Type: half-life (h)
Just the number please, in h, no unit attached.

// field: half-life; key: C[C@]12CCC(=O)C(Cl)=C1NCC1C2CC[C@@]2(C)C1CC[C@@H]2C(=O)NC1(c2ccc(Cl)cc2)CCCC1 (stereo partly specified) ; value = 19

----------
Molecular target: 3-oxo-5-alpha-steroid 4-dehydrogenase 1 (Homo sapiens)
Sequence (P18405 whole entry): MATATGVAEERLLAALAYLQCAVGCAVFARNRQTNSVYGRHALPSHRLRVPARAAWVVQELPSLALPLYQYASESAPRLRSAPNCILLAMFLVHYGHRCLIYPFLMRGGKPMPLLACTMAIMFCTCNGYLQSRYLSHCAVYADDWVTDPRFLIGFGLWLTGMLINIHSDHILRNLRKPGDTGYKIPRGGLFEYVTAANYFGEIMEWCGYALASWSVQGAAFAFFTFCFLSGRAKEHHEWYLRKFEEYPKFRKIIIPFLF
Experiment: Inhibition of recombinant steroid 5-alpha-reductase type I
Can you tell me pKi for the items I'm about to list?
Answer as the number alone; pKi is minus log10 of concentration in mol/L.

For the compound CC(C)(C)c1ccc(-c2ccc(C(F)(F)F)cc2NC(=O)[C@H]2CCC3C4CNC5=CC(=O)CC[C@]5(C)C4CC[C@@]32C)cc1 (stereo not given in full) , the measured pKi on 3-oxo-5-alpha-steroid 4-dehydrogenase 1 (Homo sapiens) was 5.96

The reported pKi value, 3-oxo-5-alpha-steroid 4-dehydrogenase 1 (Homo sapiens), for CC(C)(C)c1ccc(-c2ccccc2)cc1NC(=O)[C@H]1CCC2C3CNC4=CC(=O)CC[C@]4(C)C3CC[C@@]21C (stereo not given in full) reads 8.34

Record CC(C)(C)c1ccc(C2(NC(=O)[C@H]3CCC4C5CNC6=CC(=O)CC[C@]6(C)C5CC[C@@]43C)CCCCC2)cc1 (stereo not given in full) ; system 3-oxo-5-alpha-steroid 4-dehydrogenase 1 (Homo sapiens); pKi = 8.82

The compound C[C@]12CCC(=O)C=C1NCC1C2CC[C@@]2(C)C1CC[C@@H]2C(=O)NC1(c2ccc(Cl)cc2)CCCC1 (stereo not given in full) on 3-oxo-5-alpha-steroid 4-dehydrogenase 1 (Homo sapiens): pKi was 8.17

# lookup: C[C@]12CC[C@H]3[C@@H](CNC4=C(Cl)C(=O)CC[C@@]43C)[C@@H]1CC[C@@H]2C(=O)Nc1cc(C(F)(F)F)ccc1C(F)(F)F (stereo in doubt; 27) on 3-oxo-5-alpha-steroid 4-dehydrogenase 1 (Homo sapiens), pKi = 9.70

Log: 3-oxo-5-alpha-steroid 4-dehydrogenase 1 (Homo sapiens), compound CC(C)(C)c1ccc(C(F)(F)F)cc1NC(=O)[C@H]1CCC2C3CNC4=CC(=O)CC[C@]4(C)C3CC[C@@]21C (stereo not given in full) , pKi = 8.06

Simply: CC(C)(C)c1cc(NC(=O)[C@H]2CCC3C4CNC5=CC(=O)CC[C@]5(C)C4CC[C@@]32C)cc(C(C)(C)C)c1 (stereo not given in full) , 3-oxo-5-alpha-steroid 4-dehydrogenase 1 (Homo sapiens), pKi = 8.10

Lab entry: 3-oxo-5-alpha-steroid 4-dehydrogenase 1 (Homo sapiens) assay, compound CC(C)(C)c1ccccc1NC(=O)[C@H]1CCC2C3CNC4=CC(=O)CC[C@]4(C)C3CC[C@@]21C (stereo not given in full) , pKi = 7.57

Tested on 3-oxo-5-alpha-steroid 4-dehydrogenase 1 (Homo sapiens): CC(C)(C)c1ccc(C(C)(C)C)c(NC(=O)[C@H]2CCC3C4CNC5=CC(=O)CC[C@]5(C)C4CC[C@@]32C)c1 (stereo not given in full) . Observed pKi: 8.30

The compound C[C@]12CCC(=O)C=C1NCC1C2CC[C@@]2(C)C1CC[C@@H]2C(=O)Nc1ccccc1 (stereo not given in full) , when measured on 3-oxo-5-alpha-steroid 4-dehydrogenase 1 (Homo sapiens), yielded pKi of 6.62
